# System: Pseudomonas aeruginosa
# PROCEDURE SUMMARY: Antibacterial activity against Pseudomonas aeruginosa ATCC 27853 after 24 hrs by MTT assay
# Format: functional
# TEST SETTINGS: ATCC 27853, 24 h
REPORTED PROPERTY: MIC

| MOLECULE SMILES | MIC |
| --- | --- |
| Cc1ccc(/C=N/NC(=O)c2ccc3c(c2)OCCCO3)o1 | > 100 µg/mL |
| Cc1ccccc1/C=N/NC(=O)c1ccc2c(c1)OCCCO2 | 50 µg/mL |
| O=C(N/N=C/c1ccc(F)c([N+](=O)[O-])c1)c1ccc2c(c1)OCCCO2 | 6.25 µg/mL |
| O=C(N/N=C/c1ccc(-c2ccccc2)cc1)c1ccc2c(c1)OCCCO2 | 6.25 µg/mL |

Here's the next entry for you.
Task: # assay system Pseudomonas aeruginosa: give MIC of `O=C(N/N=C/c1cc([N+](=O)[O-])ccc1Cl)c1ccc2c(c1)OCCCO2`
Result: 3.13 µg/mL
